Consider the following binders; for each one, report its IC50 (nM) in Human IL-21R-TF1 Neutralization Assay.
subject.of.test: human IL-21R expressed on cells (human, UniProt Q9HBE5 20-538)
Sequence (Q9HBE5 20-538 limits assumed): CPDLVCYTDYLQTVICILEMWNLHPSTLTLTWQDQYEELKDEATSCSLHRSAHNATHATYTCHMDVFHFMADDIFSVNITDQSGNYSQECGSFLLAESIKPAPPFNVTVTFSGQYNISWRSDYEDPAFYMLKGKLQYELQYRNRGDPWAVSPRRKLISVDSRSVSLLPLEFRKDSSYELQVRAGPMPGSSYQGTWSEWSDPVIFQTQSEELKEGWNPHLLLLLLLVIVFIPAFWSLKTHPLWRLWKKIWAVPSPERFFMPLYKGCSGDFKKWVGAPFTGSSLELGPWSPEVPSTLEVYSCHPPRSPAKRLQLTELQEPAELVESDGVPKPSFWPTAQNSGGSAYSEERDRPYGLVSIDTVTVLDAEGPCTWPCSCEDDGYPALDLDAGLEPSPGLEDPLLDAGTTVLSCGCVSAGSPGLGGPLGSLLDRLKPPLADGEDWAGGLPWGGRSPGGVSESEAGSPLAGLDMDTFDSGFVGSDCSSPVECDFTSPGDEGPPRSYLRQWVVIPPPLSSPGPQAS
test.details: cell-based or functional assay

Guide cases for IC50 (nM) in Human IL-21R-TF1 Neutralization Assay, answers given:
scFv L5 (scFv) scFv: QVQLQESGPGLVKTSETLSLTCAVSGYSISSGYYWGWIRQPPGKGLEWIGSISHTGNTYYNPPLKSRVTISVDTSKNQFSLKLSSVTAADTAVYYCARGGGISRPEYWGKGTLVTVSSGGGGSGGGGSGGGGSALSSELTQDPPVSVALGQTVTLTCQGDSLRTYYASWYQQKSGQAPILLLYGKHKRPSGIPDRFSGSTSGDTASLTITGAQAEDEADYYCASRSSKGNPHVLFGGGTQLTVL = ~20 nM
scFv L1 (scFv) scFv: QVQLQESGPGLVKTSETLSLTCAVSGYSISSGYYWGWIRQPPGKGLEWIGSISHTGNTYYNPPLKSRVTISVDTSKNQFSLKLSSVTAADTAVYYCARGGGISRPEYWGKGTLVTVSSGGGGSGGGGSGGGGSALSSELTQDPPVSVALGQTVTLTCQGDSLRTYYASWYQQKSGQAPILLLYGKHKRPSGIPDRFSGSTSGDTASLTITGAQAEDEADYYCASRSVSGNPHVLFGGGTQLTVL = ~55 nM

Then there is this binder:
Determine from records and report IC50 (nM) in Human IL-21R-TF1 Neutralization Assay for scFv H6 (scFv) scFv: QVQLQESGPGLVKTSETLSLTCAVSGYSISSGYYWGWIRQPPGKGLEWIGSISHTGNTYYNPPLKSRVTISVDTSKNQFSLKLSSVTAADTAVYYCARFFGFGRPEYWGKGTLVTVSSGGGGSGGGGSGGGGSALSSELTQDPPVSVALGQTVTLTCQGDSLRTYYASWYQQKSGQAPILLLYGKHKRPSGIPDRFSGSTSGDTASLTITGAQAEDEADYYCNSRDSSGNPHVLFGGGTQLTVL
~150 nM
